Values were extracted from paper PMC2812011.

measured-target: TEL-Jak2 (Homo sapiens, UniProt O60674+P41212)
Sequence (O60674 849-1132 limits assumed, one chain of several): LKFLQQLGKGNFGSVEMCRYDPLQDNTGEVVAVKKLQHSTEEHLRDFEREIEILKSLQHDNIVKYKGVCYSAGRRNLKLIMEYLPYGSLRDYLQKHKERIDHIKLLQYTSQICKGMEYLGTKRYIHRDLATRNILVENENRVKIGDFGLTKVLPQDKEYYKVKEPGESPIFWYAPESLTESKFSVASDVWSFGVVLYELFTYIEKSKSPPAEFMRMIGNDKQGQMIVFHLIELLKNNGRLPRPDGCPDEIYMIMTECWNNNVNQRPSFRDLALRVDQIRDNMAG
experiment-notes: Stat5 phosphorylation in Ba/F3 TEL-Jak2 cells
measured-parameter: IC50 (nM)
Record the value in nM, omitting the unit from your answer.

What measured IC50 is associated with Cc1cc(Nc2nc(N[C@@H](C)c3ncc(F)cn3)ncc2Cl)n[nH]1 on TEL-Jak2 (Homo sapiens, UniProt O60674+P41212)?
46

* * *

measured-target: UniProt O60674
measured-parameter: Ki (nM)
Give the value, in units of nM, as a plain number.

Need Ki, item Cc1cc(Nc2nc(N[C@@H](C)c3ncc(F)cn3)ncc2Cl)n[nH]1
0.26
